- ASSAY TARGET: Human BCMA (human) (UniProt Q02223)
- RUN DESCRIPTION: SPR, IgG immobilised, huBCMA analyte, 37 C
Hi! Could you tag entries with Kd below 0.5 nM as Satisfied, and those at or above as Not satisfied? Much appreciated.

Worked examples, 5 binders total:
L3.PY/L1.FF/H2.DY (antibody, V domains shown, IgG) VH: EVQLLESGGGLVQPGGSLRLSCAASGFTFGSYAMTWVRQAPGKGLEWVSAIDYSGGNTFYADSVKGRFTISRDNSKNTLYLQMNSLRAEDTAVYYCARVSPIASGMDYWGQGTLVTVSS VL: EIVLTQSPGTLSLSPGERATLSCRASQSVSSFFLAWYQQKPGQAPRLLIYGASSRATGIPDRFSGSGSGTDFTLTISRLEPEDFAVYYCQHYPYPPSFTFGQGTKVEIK; Not satisfied
L3.PY/L3.KY/H2.QL (antibody, V domains shown, IgG) VH: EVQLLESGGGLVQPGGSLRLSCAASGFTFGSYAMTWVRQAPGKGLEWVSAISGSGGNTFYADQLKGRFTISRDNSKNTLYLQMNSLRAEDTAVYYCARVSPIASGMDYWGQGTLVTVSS VL: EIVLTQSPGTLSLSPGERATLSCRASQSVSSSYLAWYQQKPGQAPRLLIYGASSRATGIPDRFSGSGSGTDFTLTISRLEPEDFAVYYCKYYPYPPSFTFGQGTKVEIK; Not satisfied
L3.PY/L3.KY/H2.DY (antibody, V domains shown, IgG) VH: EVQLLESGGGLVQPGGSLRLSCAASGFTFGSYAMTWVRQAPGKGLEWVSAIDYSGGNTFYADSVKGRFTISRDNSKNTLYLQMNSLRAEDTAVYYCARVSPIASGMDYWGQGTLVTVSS VL: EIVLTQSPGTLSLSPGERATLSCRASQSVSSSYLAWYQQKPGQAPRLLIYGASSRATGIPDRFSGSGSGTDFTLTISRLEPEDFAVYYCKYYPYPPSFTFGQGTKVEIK; Satisfied
L3.PY/L3.KY/H3.TAQ (antibody, V domains shown, IgG) VH: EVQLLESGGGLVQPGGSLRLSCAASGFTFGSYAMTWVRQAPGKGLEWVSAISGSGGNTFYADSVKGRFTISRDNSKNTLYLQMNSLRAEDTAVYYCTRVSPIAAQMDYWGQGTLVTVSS VL: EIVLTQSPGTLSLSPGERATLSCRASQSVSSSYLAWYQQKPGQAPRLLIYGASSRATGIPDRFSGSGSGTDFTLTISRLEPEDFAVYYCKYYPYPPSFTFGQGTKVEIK; Satisfied
L3.PY/L1.AH/H3.TAQ (antibody, V domains shown, IgG) VH: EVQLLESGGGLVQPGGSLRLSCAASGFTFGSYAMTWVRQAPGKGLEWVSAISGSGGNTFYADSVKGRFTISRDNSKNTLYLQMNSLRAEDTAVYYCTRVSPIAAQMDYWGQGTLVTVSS VL: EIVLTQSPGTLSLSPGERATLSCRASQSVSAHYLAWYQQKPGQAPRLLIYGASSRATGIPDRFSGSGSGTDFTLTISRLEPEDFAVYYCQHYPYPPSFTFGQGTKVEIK; Satisfied

Strictly below 0.5 nM in Kd? L3.PY/L1.FF/H2.HA (antibody, V domains shown, IgG) VH: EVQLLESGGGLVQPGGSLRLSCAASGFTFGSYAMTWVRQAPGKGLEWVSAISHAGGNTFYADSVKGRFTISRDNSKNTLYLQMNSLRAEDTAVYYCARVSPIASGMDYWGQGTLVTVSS VL: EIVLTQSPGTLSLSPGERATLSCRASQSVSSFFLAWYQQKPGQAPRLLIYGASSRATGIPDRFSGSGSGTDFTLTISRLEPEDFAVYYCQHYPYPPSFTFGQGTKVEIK
Not satisfied

Strictly below 0.5 nM in Kd? L3.PY/L1.PH/H2.QR (antibody, V domains shown, IgG) VH: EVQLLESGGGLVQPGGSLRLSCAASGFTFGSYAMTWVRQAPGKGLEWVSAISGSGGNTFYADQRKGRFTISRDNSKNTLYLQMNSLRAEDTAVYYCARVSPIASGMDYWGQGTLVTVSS VL: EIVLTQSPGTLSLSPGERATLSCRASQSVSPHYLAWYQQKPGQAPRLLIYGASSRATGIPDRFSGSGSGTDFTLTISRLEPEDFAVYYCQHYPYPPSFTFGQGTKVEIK
Not satisfied

Strictly below 0.5 nM in Kd? L3.PY/L1.PH/H3.AQ (antibody, V domains shown, IgG) VH: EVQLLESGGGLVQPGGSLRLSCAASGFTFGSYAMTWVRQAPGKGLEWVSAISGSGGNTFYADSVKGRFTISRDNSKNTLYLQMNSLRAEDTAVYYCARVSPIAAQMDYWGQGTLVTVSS VL: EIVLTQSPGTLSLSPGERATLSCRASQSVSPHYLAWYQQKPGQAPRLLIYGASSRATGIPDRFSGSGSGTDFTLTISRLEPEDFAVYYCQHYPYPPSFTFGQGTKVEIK
Not satisfied

Source: patent US20190241669A1
